System: Plasmodium falciparum
Assay: Antimalarial activity as inhibition of Plasmodium falciparum 3D7 replication in medium + isoleucine after 65 hrs
Type: functional, organism-based
Settings: 3D7, 65 h
MEASUREMENT KIND: pEC50
Numbers only, as −log10 of the molar value.

Item CC(C)C[C@H](NC(=O)[C@@H](O)[C@H](N)Cc1ccccc1)C(=O)O has what recorded pEC50? 6.05
